biological target: GDP-bound NRAS WT (Homo sapiens, UniProt P01111); construct: His-tagged NRAS WT (aa 1–172); made in house; host or cells: Escherichia coli; assay: SOS1-mediated guanine nucleotide exchange assay (TR-FRET); type: biochemical
Sequence (P01111 1-172): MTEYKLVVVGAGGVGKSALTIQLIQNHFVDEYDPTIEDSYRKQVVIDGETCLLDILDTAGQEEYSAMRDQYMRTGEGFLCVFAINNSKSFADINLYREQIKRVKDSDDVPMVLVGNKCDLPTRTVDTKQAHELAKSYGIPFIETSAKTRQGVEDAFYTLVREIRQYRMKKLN
pIC50: −log10 of the molar value.
Hi there, I'd appreciate the recorded pIC50 for every entry that follows.

[
  {
    "STRUCTURE_AS_SMILES": "C=C(F)C(=O)N1CCN(c2nc(OC[C@@H]3CCCN3C)nc3c2CCN(c2cccc4cccc(Cl)c24)C3)C[C@@H]1CC#N",
    "RESULT": "< 5.00"
  }
]

Here's the next entry for you.
Briefly, pIC50 measured for C=CC(=O)N1CCN(c2c(C#N)c(=O)n(-c3c(C)ccnc3C(C)C)c3nc(-c4c(N)c(F)c(F)c(F)c4F)c(Cl)cc23)CC1 : < 5.00

---

assay: PK/PD study, glecirasib concentration in plasma and tumor; format: in vivo, NOD SCID mice; conditions: female, NOD SCID (NOD/ShiLtJ-Prkdc^scid), mouse, plasma and tumor; single oral administration, 30 mg/kg and 100 mg/kg; read-out: time of peak concentration in plasma and tumor
ATTRIBUTE_MEASURED: Tmax (h)
One number for each entry, in h.

Value of Tmax reported for the molecule C=CC(=O)N1CCN(c2c(C#N)c(=O)n(-c3c(C)ccnc3C(C)C)c3nc(-c4c(N)c(F)c(F)c(F)c4F)c(Cl)cc23)CC1 is 2

---

molecular target: GppNp-bound HRAS WT (Homo sapiens); construct: His-tagged HRAS WT (aa 1–166); made in house; host or cells: Escherichia coli; experiment: GppNp-loaded RAS and cRAF interaction assay (HTRF); assay type: biochemical
Sequence (P01112 1-166): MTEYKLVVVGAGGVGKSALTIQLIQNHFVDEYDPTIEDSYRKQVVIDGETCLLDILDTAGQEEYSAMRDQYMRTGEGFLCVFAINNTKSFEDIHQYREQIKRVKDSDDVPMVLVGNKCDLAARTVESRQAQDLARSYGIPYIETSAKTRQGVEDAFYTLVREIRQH
pIC50: −log10 of the molar value.
ATTRIBUTE_MEASURED: pIC50

Value (pIC50, GppNp-bound HRAS WT (Homo sapiens)) for record C=CC(=O)N1CCN(c2c(C#N)c(=O)n(-c3c(C)ccnc3C(C)C)c3nc(-c4c(N)c(F)c(F)c(F)c4F)c(Cl)cc23)CC1 = < 5.00

---

molecular target: Potassium channel KCNQ1 (Homo sapiens); test: in vitro
Sequence (P51787 whole entry): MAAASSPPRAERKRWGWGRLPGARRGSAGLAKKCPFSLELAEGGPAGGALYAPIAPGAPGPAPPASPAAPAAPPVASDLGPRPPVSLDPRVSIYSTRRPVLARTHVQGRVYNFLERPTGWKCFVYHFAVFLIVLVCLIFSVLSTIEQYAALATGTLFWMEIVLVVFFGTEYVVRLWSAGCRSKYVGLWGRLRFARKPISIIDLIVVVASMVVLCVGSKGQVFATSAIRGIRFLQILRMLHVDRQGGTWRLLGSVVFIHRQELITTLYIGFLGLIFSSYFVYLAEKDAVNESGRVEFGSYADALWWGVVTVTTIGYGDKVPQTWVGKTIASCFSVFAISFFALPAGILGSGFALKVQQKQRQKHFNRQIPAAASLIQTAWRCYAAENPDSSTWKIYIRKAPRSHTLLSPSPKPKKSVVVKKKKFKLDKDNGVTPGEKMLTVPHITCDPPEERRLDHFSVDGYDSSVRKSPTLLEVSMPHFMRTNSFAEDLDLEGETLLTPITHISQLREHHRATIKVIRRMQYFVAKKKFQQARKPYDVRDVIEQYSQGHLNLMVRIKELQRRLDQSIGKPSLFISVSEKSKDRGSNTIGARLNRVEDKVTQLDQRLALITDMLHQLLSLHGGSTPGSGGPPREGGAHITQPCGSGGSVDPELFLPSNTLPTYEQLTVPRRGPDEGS
ATTRIBUTE_MEASURED: inhibition at 10 µM (%)
Give bare numbers, in %.

Known value: Potassium channel KCNQ1 (Homo sapiens) inhibition at 10 µM of the molecule C=CC(=O)N1CCN(c2c(C#N)c(=O)n(-c3c(C)ccnc3C(C)C)c3nc(-c4c(N)c(F)c(F)c(F)c4F)c(Cl)cc23)CC1 equals 8.37

---

molecular target: hERG potassium channel (Homo sapiens, UniProt Q12809); assay: 41-target safety off-target activity panel
Sequence (Q12809 whole entry): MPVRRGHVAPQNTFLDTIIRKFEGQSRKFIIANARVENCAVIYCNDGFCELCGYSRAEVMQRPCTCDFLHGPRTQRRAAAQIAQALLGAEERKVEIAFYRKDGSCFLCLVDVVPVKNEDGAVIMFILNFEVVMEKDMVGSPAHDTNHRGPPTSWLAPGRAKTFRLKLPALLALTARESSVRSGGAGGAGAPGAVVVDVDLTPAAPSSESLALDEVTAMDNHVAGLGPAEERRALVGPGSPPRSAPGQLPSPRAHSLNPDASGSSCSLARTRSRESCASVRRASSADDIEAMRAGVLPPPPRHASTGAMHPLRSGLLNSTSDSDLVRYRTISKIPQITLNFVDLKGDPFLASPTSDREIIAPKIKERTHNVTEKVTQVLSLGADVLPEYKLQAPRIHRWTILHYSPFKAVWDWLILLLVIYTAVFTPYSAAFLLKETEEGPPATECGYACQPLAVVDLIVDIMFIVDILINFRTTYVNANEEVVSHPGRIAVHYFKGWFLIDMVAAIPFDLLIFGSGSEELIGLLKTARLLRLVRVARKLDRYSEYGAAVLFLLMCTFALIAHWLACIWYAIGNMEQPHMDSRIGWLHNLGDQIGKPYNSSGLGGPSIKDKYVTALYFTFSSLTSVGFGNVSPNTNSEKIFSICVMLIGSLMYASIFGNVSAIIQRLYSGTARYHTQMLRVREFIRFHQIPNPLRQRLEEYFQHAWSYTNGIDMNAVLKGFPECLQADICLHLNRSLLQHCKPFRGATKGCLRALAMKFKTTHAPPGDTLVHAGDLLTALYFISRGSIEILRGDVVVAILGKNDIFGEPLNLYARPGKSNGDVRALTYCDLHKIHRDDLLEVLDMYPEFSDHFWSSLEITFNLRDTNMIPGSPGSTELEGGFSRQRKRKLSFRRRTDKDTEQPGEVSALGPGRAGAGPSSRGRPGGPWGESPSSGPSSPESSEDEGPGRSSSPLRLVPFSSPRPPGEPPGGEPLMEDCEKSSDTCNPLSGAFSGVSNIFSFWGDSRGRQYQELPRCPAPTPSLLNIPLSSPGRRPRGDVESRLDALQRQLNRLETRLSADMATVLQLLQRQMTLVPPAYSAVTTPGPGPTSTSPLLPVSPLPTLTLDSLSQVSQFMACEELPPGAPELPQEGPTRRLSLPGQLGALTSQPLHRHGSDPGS
ATTRIBUTE_MEASURED: inhibition at 10 µM (%)
One number for each entry, in %.

The reported hERG potassium channel (Homo sapiens, UniProt Q12809) inhibition at 10 µM of C=CC(=O)N1CCN(c2c(C#N)c(=O)n(-c3c(C)ccnc3C(C)C)c3nc(-c4c(N)c(F)c(F)c(F)c4F)c(Cl)cc23)CC1 is 18.2

---

target: GDP-bound HRAS WT (Homo sapiens); construct: His-tagged HRAS WT (aa 1–166); made in house; host or cells: Escherichia coli; assay: SOS1-mediated guanine nucleotide exchange assay (TR-FRET); assay type: biochemical; conditions: GDP-bound HRAS WT; compound pre-incubation 25°C, 60 min; read-out: IC50
Sequence (P01112 1-166): as the sequence (P01112 1-166) above
pIC50: −log10 of the molar value.
ATTRIBUTE_MEASURED: pIC50

The value of pIC50 measured for the molecule C=CC(=O)N1CCN(c2nc(=O)n(-c3c(C)ccnc3C(C)C)c3nc(-c4c(O)cccc4F)c(F)cc23)[C@@H](C)C1 [Sotorasib, reference compound] turned out to be < 5.00

FYI, the data here is from paper PMC12076188.
